Provenance of the data: paper PMC10397247

Target: T1, 4H953-bN
T1 chain: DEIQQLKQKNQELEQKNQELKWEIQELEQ
Assay: two-hybrid library CCNG1;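 also: natural log of median RNA to DNA barcode read ratio; higher means stronger binding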
Outcome measure: interaction score
Enter the number alone.

DKNQQLEQEIQELEQKIQELEWKNQELKQ [4H3112-bN] :: 0.0741
DEIQQLEQKNQELKQEIQELEWKIQELKQ [4H454-bN] :: -1.26
DEIAQLKQEIAELEQKNAELKWEIAQLKQ [4H570-bA] :: -0.0403

Then there is this binder:
Item: DKIQQLKQKNQELKQEIQELEWEIQELKQ [4H3010-bN] | interaction score: -1.77
